Measured melting point of individual entries

Here are 6 compounds together with their reported answers.
Tell me the measured melting point of COc1ccc(/C=C(\C#N)S(=O)(=O)Cc2ccc(Cl)cc2Cl)c(OC)c1 , please.
165 to 170 °C

Entry to check: N#C/C(=C\c1ccc(C#N)cc1F)S(=O)(=O)Cc1ccc(Br)cc1
202 to 204 °C

Entry to check: N#C/C(=C\c1ccc(Br)cc1)S(=O)(=O)Cc1ccc(F)cc1
155 to 168 °C

Entry to check: N#C/C(=C\c1ccc(O)c(O)c1)S(=O)(=O)Cc1ccc(Cl)cc1
178 to 180 °C

Entry to check: COc1ccc(CS(=O)(=O)/C(C#N)=C/c2ccsc2)cc1
142 to 144 °C

Entry to check: N#C/C(=C\c1ccc(O)c([N+](=O)[O-])c1)S(=O)(=O)Cc1ccccc1
159 to 162 °C

***
Tell me the measured melting point of N#C/C(=C\c1ccc(Cl)c(Cl)c1Cl)S(=O)(=O)Cc1ccc(Cl)cc1 , please.
145 to 155 °C

Entry to check: COc1cc(OC)c(/C=C(\C#N)S(=O)(=O)Nc2ccc(C)cc2C)c(OC)c1
132 to 134 °C

Cited source for all entries: patent US20090191193A1
